src = PubChem BioAssay (NCI)

# Tested on: LOX IMVI melanoma
# measurement protocol: NCI-60 one-dose screen, 48 h (100 = growth as untreated, 0 = no growth, -100 = all killed)
# condition notes: 10 µM unless noted
About 83,000 compounds went through this panel and 20% of them were active in at least one assay; those are over-represented in the sample as a whole.

| molecular string | growth (%) |
| --- | --- |
| CCCCCCCC(=O)SCC/C=C/[C@@H]1CC(=O)NCc2nc(co2)C2=N[C@@](C)(CS2)C(=O)N[C@@H](C(C)C)C(=O)O1 | -97.2 |
| CCN1CCN(c2nc(C)cc(N(CCCNc3ccnc4cc(Cl)ccc34)Cc3ccc4c(c3)OCO4)n2)CC1 | -84.4 |
| Cc1ccc(NC(=O)c2ccc(CN3CC[C@H](N(C)C)C3)c(C(F)(F)F)c2)cc1Nc1nccc(-c2cncnc2)n1 | -72.7 |
| Cc1cc2c3c(cccc3c1)C(=O)c1ccccc1-2 | 86.8 |
| Ic1ccccc1-c1ccccc1 | 103 |

###

# System: OVCAR-8 ovarian
# measurement protocol: NCI-60 one-dose screen, 48 h (100 = growth as untreated, 0 = no growth, -100 = all killed)
# condition notes: 10 µM unless noted
About 83,000 compounds went through this panel and 20% of them were active in at least one assay; those are over-represented in the sample as a whole.

| molecular string | growth [%] |
| --- | --- |
| O=C(Cn1ccc2ccccc21)Nc1ccc(-c2nc3ccccc3s2)cc1 | 105 |
| Cn1c(=O)c(F)c(Nc2ccc(I)cc2F)c2c(=O)n(C[C@@H](O)CO)cnc21 | 43.9 |
| NC1=Nc2cc(OCCCN3Cc4ccccc4C3)c(OCC3CC3)cc2C12CCCC2 | 72 |
| C[C@@H](C[C@H](CCO)c1cc(C(F)(F)F)cc(C(F)(F)F)c1)c1ccc2ccccc2c1 | 102 |
| C#Cc1cccc(Nc2ncnc3cc(OC)c(OCCCCCCC(=O)NO)cc23)c1 | -21.5 |

###

# Tested on: NCI-H23 lung
# measurement protocol: NCI-60 one-dose screen, 48 h
# condition notes: 10 µM unless noted
Compounds without any hit were thinned out: in the full panel of roughly 83,000, 20% have a hit. The source made the active and inactive calls. How the source made its calls: active means growth percent below 10; inactive means the rest.
Labels: active, inactive

| molecular string | label value |
| --- | --- |
| CCc1nc2cc(/C=C/C(=O)NO)ccc2c(=O)n1CCc1ccc(OC)cc1 | inactive |
| COc1ccc(Nc2ncccc2NC(=O)c2cn(Cc3cccc(Oc4ccccc4)c3)nn2)cc1 | inactive |
| O=c1[nH]ccc2c(S(=O)(=O)N3CCCNCC3)cccc12 | inactive |
| N#Cc1c(-c2ccc(Cl)cc2)csc1NC(=O)Nc1cccc(C(F)(F)F)c1 | active |

###

# Tested on: SR leukemia
# measurement protocol: NCI-60 one-dose screen, 48 h (100 = growth as untreated, 0 = no growth, -100 = all killed)
# condition notes: 10 µM unless noted
This is part of a sample that, as a whole, favours compounds with a hit. Of some 83,000 tested, about 20% had one in any assay.
Each entry below carries its recorded growth.

| compound | growth [%] |
| --- | --- |
| CCCCCC(=O)OCc1ccc(Cl)c(Cl)c1 | 97.5 |
| O=C(c1ccccc1)C(c1ccccc1)N1CCOCC1 (configuration not stated) | 95.6 |
| COc1cc2cc(NCc3ccc(F)cc3)nc(C)c2cc1OC | 22.2 |
| CCN1CCN(Cc2ccc(NC(=O)Nc3nc(-c4cc(OC)c(OC)c(OC)c4)cs3)cc2C(F)(F)F)CC1 | -32.6 |
| COc1ccc(OC)c(NC2=C(SCCc3ccccc3)C(=O)c3ccccc3C2=O)c1 | 70.7 |
| CNC(=O)c1cccc2cc(Oc3ccnc4cc(OCC5(N)CC5)c(OC)cc34)ccc12 | 27.6 |
| Nc1nc(=S)c2ncn(C3OC(COC(=O)c4ccc(Cl)cc4)C(OC(=O)c4ccc(Cl)cc4)C3OC(=O)c3ccc(Cl)cc3)c2[nH]1 (configuration not stated) | 72.8 |
| c1cn2cc(-c3ccc4cn[nH]c4c3)nc(Nc3ccc(N4CCOCC4)cc3)c2n1 | 50 |
| CC(=O)c1c(C)c2cnc(Nc3ccc(N4CCNCC4)cn3)nc2n(C2CCCC2)c1=O | -18.7 |
| COc1c(OCCCN2CCOCC2)ccc2c3n(c(=NC(=O)c4cnc(N)nc4)nc12)CCN3 | 5.24 |
| CC(C)(C)C(=O)OCOP(=O)(OCOC(=O)C(C)(C)C)C1CCCN(OC(=O)c2ccccc2)C1=O (configuration not stated) | 7.15 |
| S=C(NCc1ccc2c(c1)OCO2)N1CCN(c2ncnc3c2oc2ccccc23)CC1 | 14.8 |
| Cc1ccccc1Nc1nc2nonc2nc1Nc1cccc(C)c1C | 66.8 |
| CCCNC(=O)c1cn2ncnc(Nc3cc(C(=O)NC4CC4)ccc3C)c2c1C | 73.6 |
| O=C(NCCO)Nc1ccc(-c2nc(N3CCOCC3)c3cccn3n2)cc1 | 8.14 |
| CCN1CCN(CCCN(C[C@H]2Cc3ccccc3CN2)[C@H]2CCCc3cccnc32)CC1 | 53.6 |
| NS(=O)(=O)c1ccc(CCN2C(=O)/C(=C\c3ccc(Cl)cc3)C=C2c2ccc3ccccc3c2)cc1 | 83.3 |
| COc1cc2c(cc1OCCCCCN1CCN(c3ncnc4ccccc34)CC1)N=CC1CCCN1C2=O (configuration not stated) | 0.841 |
| Cc1ccc(-n2nc(C(C)(C)C)cc2NC(=O)NCc2cc(F)ccc2Oc2ccc3c(cnn3CCO)c2)cc1 | 7.67 |
| Cc1cc(Nc2nc(N[C@@H](C)c3ncc(F)cn3)ncc2Cl)n[nH]1 | 7 |
| CC(=O)CC1CCCC1c1ccc2ccccc2c1 (configuration not stated) | 104 |
| COc1ccc(C(=O)N2c3ccccc3Sc3ccccc32)c(F)c1 | 23 |
| CO[C@H](C(=O)N[C@@H](CCCCNC(=O)OCc1ccccc1)C(=O)OC(C)(C)C)[C@@H]1Cc2cc3cc(OC4CC(OC5CC(O)C(O)C(C)O5)C(O)C(C)O4)c(C)c(O)c3c(O)c2C(=O)[C@H]1OC1CC(OC2CC(OC3CC(C)(O)C(O)C(C)O3)C(O)C(C)O2)C(O)C(C)O1 (some centres not stated) | 7.17 |
| O=C1C=CC2(NN=C(c3ccccc3)N2c2cccc(Cl)c2)c2cccc(O)c21 (configuration not stated) | 49.9 |
| CC(C)C1CCC(C)C(C2(C#N)C(N)=NC(N)=C2C#N)C1=O (configuration not stated) | 102 |
| CCNCCNc1cc(-c2ccc(Cl)c(Cl)c2)c(C#N)c2nc3ccccc3n12 | -30.9 |
| COc1ccc2c(CCC(c3ccccc3)c3ccccc3)c3[n+](cc2c1OC)CCc1cc2c(cc1-3)OCO2 | -29.9 |
| Cc1cc(C2(c3ccc(O)c(C)c3)OS(=O)(=O)c3ccccc32)ccc1O | 97.2 |
| O=[N+]([O-])c1cc(Br)cc2c1[nH]c1ccc(Br)cc12 | 77.2 |
| Cn1c(Nc2ccc(C(F)(F)F)cc2)nc2cc(Oc3ccnc(-c4ncc(C(F)(F)F)[nH]4)c3)ccc21 | 32.1 |
| Cc1cc2c(-c3nc4ccccn4c3NC3CCCCC3)c(O)c(O)cc2c(O)c1-c1c(C)cc2c(-c3nc4ccccn4c3NC3CCCCC3)c(O)c(O)cc2c1O | 25.8 |
| N[C@@H]1CCCN(c2c(/C=C3\SC(=O)NC3=O)cccc2-c2ccccc2)C1 | 22.1 |
| COc1cc(-c2nc(C(=O)Nc3ccc(C)cc3)nn2-c2ccc(F)c(F)c2)cc(OC)c1OC | 91.8 |
| CC(N)C(Cc1ccc(Cl)cc1)c1ccc(Cl)cc1 (configuration not stated) | -9.14 |
| O=C(NC1CCNCC1)c1[nH]ncc1NC(=O)c1c(Cl)cccc1Cl | 2.12 |
| CCc1cc2c(c3ccc(C(=O)CBr)cc13)CCCC2 | 91.7 |
| CCn1cc(-c2ccnc3[nH]c(-c4cccc(CN(C)C)c4)cc23)c(-c2ccc(NC(=O)N(C)C)cc2)n1 | -15.8 |

###

# Test system: HT29 colon
# measurement protocol: NCI-60 one-dose screen, 48 h
# condition notes: 10 µM unless noted
The panel holds about 83,000 compounds, 20% with a hit somewhere; the sample as a whole holds those more often. Calls of active or inactive are those of the source. Rule for the calls: active = growth percent below 10; inactive = the rest.
Labels: active, inactive

| compound | tested system | label value |
| --- | --- | --- |
| CCCC(=O)OCC1OC(n2cnc3c(=S)nc(N)[nH]c32)C(OC(=O)CCC)C1OC(=O)CCC (stereo not given) | HT29 colon | inactive |
| CO[C@@H](C)Cn1c(=O)n(C)c2cnc3ccc(-c4cncc(C(C)(C)O)c4)cc3c21 | HT29 colon | active |
| C[C@@H](N)c1ccc(C(=O)Nc2ccnc3[nH]ccc23)cc1 | HT29 colon | inactive |
| CC(N)C(Cc1ccccc1)c1ccc(Cl)cc1 (stereo not given) | HT29 colon | inactive |
| CCN(CCCOc1ccc2c(Nc3cc(CC(=O)Nc4cccc(F)c4)[nH]n3)ncnc2c1)CCOP(=O)(O)O | HT29 colon | inactive |
